Target: UniProtKB P34969
Test: Radioligand binding, 5-HT7 ([3H]-5-CT displacement)
pKi: −log10 of the molar value.
Decide by pKi: equal to or exceeding 5 means fulfilled, less means not fulfilled.

Look over these answered cases.
| COMPOUND | CLASSIFICATION |
| --- | --- |
| CN(C)CCNc1nc2ccccc2c2c1ccn2S(=O)(=O)c1ccccc1 [Compound 1] | fulfilled |
| CN1CCN(c2nc3ccccc3c3c2ccn3S(=O)(=O)c2ccccc2)CC1 [Compound 53] | fulfilled |
| CC(C)c1ccc(S(=O)(=O)n2ccc3c(N4CCNCC4)nc4ccccc4c32)cc1 [Compound 40] | fulfilled |
| O=S(=O)(c1cccc2cccnc12)n1ccc2c(NC3CCNC3)nc3ccccc3c21 (stereo not drawn) [Compound 22] | not fulfilled |
| N#Cc1cccc(S(=O)(=O)n2ccc3c(N4CCNCC4)nc4ccccc4c32)c1 [Compound 38] | fulfilled |

// query Hi, just wondering whether O=S(=O)(c1cccc(Cl)c1)n1ccc2c(N3CCOCC3)nc3ccccc3c21 [Compound 78] shows pKi of 5 or higher.
// result not fulfilled

// query Input O=S(=O)(c1cccc2cccnc12)n1ccc2c(N3CCOCC3)nc3ccccc3c21 [Compound 79]
// result fulfilled

// query Entry O=S(=O)(c1cc(F)ccc1F)n1ccc2c(NC3CCNC3)nc3ccccc3c21 (stereo not drawn) [Compound 12] please
// result fulfilled

// query Entry O=S(=O)(c1ccc(Cl)c(Cl)c1)n1ccc2c(N3CCNCC3)nc3ccccc3c21 [Compound 34] please
// result fulfilled

// query Query O=S(=O)(c1cccc2cccnc12)n1ccc2c(N3CCN(Cc4ccccc4)CC3)nc3ccccc3c21 [Compound 62] next
// result fulfilled

// query Also O=S(=O)(c1cccc2cccnc12)n1ccc2c(N3CCCCC3)nc3ccccc3c21 [Compound 77] ?
// result not fulfilled

// query Do the same for CN1CCN(c2nc3ccccc3c3c2ccn3S(=O)(=O)c2cccc(Cl)c2)CC1 [Compound 54] please
// result fulfilled

====

Target: 5-HT7 receptor (Homo sapiens)
Sequence (P34969 1-432 limits assumed): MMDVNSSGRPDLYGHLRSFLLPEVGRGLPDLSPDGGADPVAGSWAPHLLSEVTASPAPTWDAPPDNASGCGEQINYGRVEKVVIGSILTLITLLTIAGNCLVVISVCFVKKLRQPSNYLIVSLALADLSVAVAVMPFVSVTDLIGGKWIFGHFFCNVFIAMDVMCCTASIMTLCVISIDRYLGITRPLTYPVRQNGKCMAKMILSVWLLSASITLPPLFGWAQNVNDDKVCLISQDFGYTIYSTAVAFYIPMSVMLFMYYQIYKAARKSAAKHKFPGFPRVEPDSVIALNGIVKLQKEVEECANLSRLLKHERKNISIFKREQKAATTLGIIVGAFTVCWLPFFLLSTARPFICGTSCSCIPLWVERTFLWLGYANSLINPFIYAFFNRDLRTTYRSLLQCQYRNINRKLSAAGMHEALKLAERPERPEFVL
Experiment: Radioligand binding, 5-HT7 ([3H]-5-CT displacement)
Settings: read-out: Ki 5-HT7; cloned human receptor in HEK293; three independent experiments, SEM ± 22%
ENDPOINT_LABEL: pKi
Scale for pKi: -log10 of concentration given in mol/L; no unit attached.

// query I am curious: what pKi value has been reported for CN1CCN(c2nc3ccccc3c3c2ccn3S(=O)(=O)c2cccc3cccnc23)CC1 [Compound 59] ?
// result 5.11

====

Target: UniProt:P50406
Sequence (P50406 whole entry): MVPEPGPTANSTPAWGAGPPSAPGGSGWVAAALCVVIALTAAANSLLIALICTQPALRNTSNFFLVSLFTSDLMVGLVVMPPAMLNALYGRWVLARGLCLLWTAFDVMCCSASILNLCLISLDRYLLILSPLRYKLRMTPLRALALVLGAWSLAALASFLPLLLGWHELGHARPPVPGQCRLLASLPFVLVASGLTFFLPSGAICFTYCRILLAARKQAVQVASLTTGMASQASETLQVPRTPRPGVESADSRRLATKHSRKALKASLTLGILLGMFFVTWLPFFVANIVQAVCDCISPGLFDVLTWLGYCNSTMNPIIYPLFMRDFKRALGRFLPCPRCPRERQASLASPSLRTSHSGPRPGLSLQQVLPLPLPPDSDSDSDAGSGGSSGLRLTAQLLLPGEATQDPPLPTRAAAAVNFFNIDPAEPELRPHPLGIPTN
Experiment: Radioligand binding, 5-HT6 ([3H]-LSD displacement)
Details: 10^−6 M; values marked c in the 5-HT6 column
Marks after values point to notes of the source that are not given here.
ENDPOINT_LABEL: displacement % at 10^−6M, 5-HT6

Examples with answers:
| STRUCTURE | TARGET_SYSTEM | displacement % at 10^−6M, 5-HT6 |
| --- | --- | --- |
| Nc1ccc(S(=O)(=O)n2ccc3c(N4CCNCC4)nc4ccccc4c32)cc1 | UniProt:P50406 | 97^c % |
| O=S(=O)(c1cccc2ccccc12)n1ccc2c(N3CCNCC3)nc3ccc(Cl)cc3c21 | UniProt:P50406 | 98^c % |
| O=S(=O)(c1ccc2ccccc2c1)n1ccc2c(N3CCNCC3)nc3ccccc3c21 | UniProt:P50406 | 99^c % |

Turning now to a further record.
// query Could you share what displacement % at 10^−6M, 5-HT6 was measured for `O=S(=O)(c1cccc(F)c1)n1ccc2c(N[C@H]3CCNC3)nc3ccccc3c21` , tested on UniProt:P50406?
// result 99^c %
